# Subject of test: UniProtKB P33032
# Sequence (P33032 whole entry): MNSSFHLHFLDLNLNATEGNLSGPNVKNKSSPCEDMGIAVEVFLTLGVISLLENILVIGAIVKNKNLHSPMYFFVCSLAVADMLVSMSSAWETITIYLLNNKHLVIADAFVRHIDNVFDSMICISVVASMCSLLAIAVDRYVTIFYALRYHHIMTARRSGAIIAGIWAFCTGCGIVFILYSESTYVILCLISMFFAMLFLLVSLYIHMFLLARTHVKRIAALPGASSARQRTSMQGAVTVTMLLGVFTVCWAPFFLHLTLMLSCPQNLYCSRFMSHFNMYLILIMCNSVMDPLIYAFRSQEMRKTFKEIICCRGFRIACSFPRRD
# Experiment: Binding of iodine-125 labeled NDP-α-MSH, human recombinant CHO cells, hMC5r
# Protocol: Melanocortin receptor binding and function of Compound 7.1 was tested. Ki binding values (nM) were calculated utilizing the percent inhibit of the binding of iodine-125 labeled NDP-α-MSH against B16-F1 cells for mMC1r, and human recombinant CHO cells for hMC3r, hMC4r and hMC5r, with the inhibition constant calculated using the Cheng Prusoff equation. […]

Compound | Subject of test | Ki [nM]
CC(=O)N1CCC(N(CC(C)C)N2CCN(C(=O)[C@@H](Cc3ccc(Cl)cc3)NC(=O)C(C)(C)N)CC2)CC1 | UniProtKB P33032 | 1200
